Target: Human M4 (Homo sapiens)
Construct: Human or rat M4 cDNA, along with the chimeric G protein Gq,5, were transfected into Chinese hamster ovary (CHO-K1) cells
Sequence (P08173 whole entry): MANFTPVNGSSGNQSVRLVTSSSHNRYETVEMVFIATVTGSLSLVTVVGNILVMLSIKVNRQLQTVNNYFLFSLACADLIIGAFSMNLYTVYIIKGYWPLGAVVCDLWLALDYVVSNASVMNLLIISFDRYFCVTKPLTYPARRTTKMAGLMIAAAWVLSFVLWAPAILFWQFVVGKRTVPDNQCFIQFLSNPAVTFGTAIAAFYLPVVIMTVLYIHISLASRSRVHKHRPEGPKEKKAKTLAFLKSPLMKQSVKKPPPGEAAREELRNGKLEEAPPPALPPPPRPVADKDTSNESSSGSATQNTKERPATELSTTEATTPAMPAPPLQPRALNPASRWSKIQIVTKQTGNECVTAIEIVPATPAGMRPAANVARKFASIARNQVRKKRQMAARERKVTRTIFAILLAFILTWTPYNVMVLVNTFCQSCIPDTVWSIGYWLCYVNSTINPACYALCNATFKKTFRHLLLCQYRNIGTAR
Test: mAChR M4 cell-based functional assay (calcium flux, decrease of EC80 acetylcholine response)
Settings: CHO-K1 cells with human M4 and Gqi5; EC80 acetylcholine
Experimental: Human or rat M4 cDNA, along with the chimeric G protein Gq,5, were transfected into Chinese hamster ovary (CHO-K1) cells purchased from the American Type Culture Collection using Lipofectamine2000. […] Calcium flux was measured using the Functional Drug Screening System (FDSS) 6000 or 7000 (Hamamatsu Corporation, Tokyo, Japan) as an increase in the fluorescent static ratio. […] Agonist activity was analyzed as a concentration-dependent increase in calcium mobilization upon compound addition. […]
Reported pIC50 values for a set of compounds
Field pIC50 (float): negative decimal logarithm of the concentration in molar.

Observe how each entry below is paired with its result.
[2H]C([2H])([C@@H]1CCCCO1)N1C[C@H]2C[C@H](Nc3ccc(-c4cc(F)cc(F)c4F)nn3)C[C@H]2C1 [Compound 43] :: 9.02
[2H]C([2H])(COC(C)(C)C)N1C[C@H]2C[C@H](Nc3ccc(-c4cc(F)cc(F)c4F)nn3)C[C@H]2C1 [Compound 56] :: 8.52
Fc1ccc(OCCN2C[C@H]3C[C@H](Nc4ccc(-c5cc(F)cc(F)c5F)nn4)C[C@H]3C2)cc1 [Compound 58] :: 6.77
Fc1cc(F)c(F)c(-c2ccc(N[C@H]3C[C@@H]4CN(C[C@@H]5COCCO5)C[C@@H]4C3)nn2)c1 [Compound 28] :: 9.16
[2H]C([2H])(C1CC(C)(C)OC(C)(C)C1)N1C[C@H]2C[C@H](Nc3ccc(-c4cc(F)cc(F)c4F)nn3)C[C@H]2C1 [Compound 83] :: 7.25

Problem: # returns recorded pIC50 (system: Human M4 (Homo sapiens)) for Fc1cc(F)c(F)c(-c2ccc(N[C@H]3C[C@@H]4CN(Cc5cc(Cl)ccn5)C[C@@H]4C3)nn2)c1 [Compound 19]
Result: 6.88

From: patent US20230150986A1
